assay: Determination of biodistribution of radiolabeled compounds in rats after caudal vein administration; assay type: in vivo, SD strain rats; conditions: SD-rats female, n = 3, caudal vein, 15 Minutes after administration
So basically: Biodistribution, Femur and Tibia at 3 % ID/g or higher? That is true (1). Lower than 3 % ID/g? That is false (0).

Does the compound O=C(NCC(P(=O)(O)O)P(=O)(O)O)c1ccccc1I have recorded Biodistribution, Femur and Tibia that is 3 % ID/g or more?
true (1)

----------
assay: Determination of biodistribution of radiolabeled compounds in rats after caudal vein administration; assay type: in vivo, SD strain rats; conditions: SD-rats female, n = 3, caudal vein, 120 Minutes after administration
measured-quantity: Biodistribution, Femur and Tibia
Units required after the number.

[
  {
    "molecule": "O=C(NCC(P(=O)(O)O)P(=O)(O)O)c1ccccc1I",
    "Biodistribution, Femur and Tibia": "3.714 ± 0.474 % ID/g"
  }
]

We now examine a further molecule.
Dear colleague, I am looking for the recorded Biodistribution, Femur and Tibia of the following molecule: O=C(O)CNC(=O)CC(P(=O)(O)O)P(=O)(O)O (99mTc complex, metal not drawn)
3.552 ± 0.327 % ID/g
